target: Retinal dehydrogenase 2 (Homo sapiens) (UniProt O94788); assay: qHTS for Inhibitors of the Aldehyde Dehydrogenase Family (ALDH1A2) Confirmation screens (AID 2061314); conditions: ALDH1A2 enzyme inhibition qHTS confirmation; series mostly up to 45.9 µM; note: nearly all actives have a fitted effect of over 65% in size
Inconclusive results are not listed. Calls of active or inactive are those of the source. Calls come from the whole dose curve; as a rule, active = well fitted inhibition curve with a large enough effect; inconclusive = small, poorly fitted or top-dose-only effect; inactive = no such curve, though single readings can be large or run the other way.
Field 'call' accepts Y (active), N (inactive)

COCCn1cnnc1CN(C)C(=O)c1ccc2nc(C)cn2c1
N
Oc1ccc(COC2CCN(Cc3ccccc3)C2)c2cccnc12 (stereo not given)
N
CC(C)CN1C(=O)CO[C@H](c2ccc(NS(=O)(=O)c3cccc(F)c3)cc2)[C@H]1CO
N
COc1cccc(-c2nnc(-c3ccccc3NC(=O)c3cccc(C(F)(F)F)c3)o2)c1
N
CCc1nn2c(=O)c(S(=O)(=O)Nc3ccc(C(C)C)cc3)c(C)nc2s1
N
CC(=O)N1CCN(c2ccc(NCc3ccc(Br)o3)cc2)CC1
Y

Exercise: Tell me the assay call for `CN(C)CCCNC(=O)c1ccc(-c2cnc3c(O)cccc3c2)cc1` please.
Key: N

Exercise: Tell me the assay call for `CC(C)(C)OC(=O)N[C@@H](Cc1ccc(O[S+](=O)([O-])c2cccnc2)cc1)C(=O)N1CCN(c2ccccc2)CC1` please.
Key: Y

Exercise: Tell me the assay call for `O=C(O)c1ccc(O)c2ncc(N3CC(N4CCOCC4)C3)cc12` please.
Key: Y

Exercise: Tell me the assay call for `O=C(COc1ccccc1-c1nc(-c2ccccc2)no1)Nc1cccc([N+](=O)[O-])c1` please.
Key: N

###

assay: BET inhibitor-based combinations targeting novel dependencies in MECOM-rearranged (r) AML: MV-4-11 cell line (AID 2202233); conditions: MV-4-11 AML viability, CellTiter-Glo luminescence, 48 h; series mostly up to 46 µM; note: nearly all actives have a fitted effect of over 45% in size
Results filed as inconclusive are left out. Activity calls are given as the source filed them. The call rests on the fitted dose curve; in most records, active means well fitted inhibition curve with a large enough effect; inconclusive means small, poorly fitted or top-dose-only effect; inactive means no such curve, though single readings can be large or run the other way.
Field 'call' accepts yes = active, no = inactive

Check out these entries, answers already filled in.
CCOC(=N)c1nc2ccc3ncnc(Nc4cc(F)c(F)cc4Cl)c3c2s1
yes
CO[C@H]1/C=C/O[C@@]2(C)Oc3c(C)c(O)c4c(O)c(c(/C=N\N5CCN(C6CCCC6)CC5)c(O)c4c3C2=O)NC(=O)/C(C)=C\C=C\[C@H](C)[C@H](O)[C@@H](C)[C@@H](O)[C@@H](C)[C@H](OC(C)=O)[C@@H]1C
yes
COc1ccc(Cl)cc1-c1cc(=O)[nH]c(=S)n1CC(N)=O
no
Nc1ccn([C@@H]2O[C@H](CO)[C@@H](O)[C@H]2O)c(=O)n1
yes
C[C@@H]1CCNC(=O)c2cc3ccc(C(=O)Nc4nc5ccccc5n4CCCN(C)C)cc3n21
yes

Exercise: Tell me the assay call for `CN(C)C[C@@H]1CCn2cc(c3ccccc32)C2=C(C(=O)NC2=O)c2cn(c3ccccc23)CCO1` please.
Key: yes

Exercise: Tell me the assay call for `COc1ccc([C@@H]2CC(=O)c3c(O)cc(O[C@@H]4O[C@H](CO[C@@H]5O[C@@H](C)[C@H](O)[C@@H](O)[C@H]5O)[C@@H](O)[C@H](O)[C@H]4O)cc3O2)cc1O` please.
Key: no

###

biological target: Aldehyde dehydrogenase, mitochondrial (Homo sapiens); assay: qHTS for Inhibitors of the Aldehyde Dehydrogenase Family (ALDH2) Primary screen (AID 2061308); details: ALDH2 enzyme inhibition qHTS, 1536-well; series mostly up to 56 µM; note: nearly all actives have a fitted effect of over 55% in size
Records with an inconclusive call do not appear. Activity calls are given as the source filed them. Calls follow the shape of the dose curve; as a rule, active = well fitted inhibition curve with a large enough effect; inconclusive = small, poorly fitted or top-dose-only effect; inactive = flat fitted curve, though single readings scatter.
Field 'call' accepts active, inactive

Exercise: Tell me the assay call for `N#Cc1c(-c2ccc(F)c(Br)c2)no[n+]1[O-]` please.
Key: active

Exercise: Tell me the assay call for CCC(=O)NC(c1cc(Cl)c2ccccc2c1O)C(C)C (centres undefined) please.
Key: inactive

Exercise: Tell me the assay call for `Oc1cccc2cc(-c3ccncc3)cnc12` please.
Key: inactive

Exercise: Tell me the assay call for `O=C(OCC#CCSc1nnc(-c2cccc(F)c2)o1)c1ccc(F)cc1` please.
Key: inactive

Exercise: Tell me the assay call for `C=CCNc1oc(-c2cccnc2)nc1C#N` please.
Key: inactive

###

test: BET inhibitor-based combinations targeting novel dependencies in MECOM-rearranged (r) AML: HNT-34 cell line (AID 2202234); conditions: HNT-34 AML viability, CellTiter-Glo luminescence, 48 h; series mostly up to 46 µM; note: nearly all actives have a fitted effect of over 35% in size
Inconclusive results are not listed. Calls of active or inactive are those of the source. The call rests on the fitted dose curve; in most records, active means well fitted inhibition curve with a large enough effect; inconclusive means small, poorly fitted or top-dose-only effect; inactive means no such curve, though single readings can be large or run the other way.
Field 'call' accepts active, inactive

Check out these entries, answers already filled in.
N#Cc1cc2cc(CN3CCC(Nc4ncnc5sc(CC(F)(F)F)cc45)CC3)c(O)cc2n1Cc1cn[nH]c1
active
C=CCNC1=C2CC(C)CC(OC)C(O)C(C)/C=C(\C)C(OC(N)=O)C(OC)/C=C/C=C(\C)C(=O)NC(=CC1=O)C2=O (centres undefined)
active
COc1ccc2c(c1)CC[C@@H]1[C@@H]2CC[C@]2(C)[C@@H](NCCCCCCN3C(=O)C=CC3=O)CC[C@@H]12
inactive
C[N+](C)(C)CC(=O)O
inactive
CN1C(N)=N[C@](C)(c2cc(NC(=O)c3ccc(F)cn3)ccc2F)CS1(=O)=O
inactive

Moving on to another compound below.
Exercise: Tell me the assay call for `N#Cc1ccc(N(Cc2ccc(Br)cc2)n2cnnc2)cc1` please.
Key: active

###

test: BET inhibitor-based combinations targeting novel dependencies in MECOM-rearranged (r) AML: AML-191 cell line (AID 2202236; note: nearly all actives have a fitted effect of over 35% in size); conditions: AML-191 viability, CellTiter-Glo luminescence, 48 h; series mostly up to 46 µM
Results filed as inconclusive are left out. The source made the active and inactive calls. The call rests on the fitted dose curve; in most records, active means well fitted inhibition curve with a large enough effect; inconclusive means small, poorly fitted or top-dose-only effect; inactive means flat fitted curve, though single readings scatter.
Field 'call' accepts active, inactive

Check out these entries, answers already filled in.
C/C(=N\NC(=S)N1CCC1)c1ccccn1
active
CN1CCN(c2cccc(Nc3nc4c(-c5ccc(S(C)(=O)=O)cc5)cccn4n3)c2)CC1
active
O=C(NC[C@H](O)CO)c1ccncc1Nc1ccc(I)cc1F
active
CC(C)Oc1ccc(C(=O)N[C@H](CNC(=O)CN(C)C)Cc2ccc(-c3cn4cccc([C@H](C)O)c4n3)cc2)cc1Cl
active

Exercise: Tell me the assay call for `COc1ccc(S(=O)(=O)N[C@@H](CNc2nc(C)nc(N3CCC(c4ccc5c(n4)NCCC5)CC3)c2C)C(=O)O)cc1` please.
Key: inactive

Exercise: Tell me the assay call for `NC(=O)/C(=C/n1cnc(-c2cc(C(F)(F)F)cc(C(F)(F)F)c2)n1)c1cncnc1` please.
Key: active

Exercise: Tell me the assay call for `CC[C@H](CC[C@@H](C)[C@H]1CC[C@H]2[C@@H]3CC=C4C[C@@H](O)CC[C@]4(C)[C@H]3CC[C@]12C)C(C)C` please.
Key: inactive

Exercise: Tell me the assay call for `COC1=C(OC)C(=O)C(CCCCCCCCCCO)=C(C)C1=O` please.
Key: active

Exercise: Tell me the assay call for Clc1cccc(C(c2ccc3nc[nH]c3c2)n2ccnc2)c1 (stereo not given) please.
Key: inactive

Exercise: Tell me the assay call for `O=C(O)/C=C/c1ccc(Cn2ccnc2)cc1` please.
Key: inactive

###

assay: BET inhibitor-based combinations targeting novel dependencies in MECOM-rearranged (r) AML: OCI-AML3 cell line (AID 2202232); conditions: CellTiter-Glo luminescence, 48 h; OCI-AML3 viability; series mostly up to 46 µM; note: nearly all actives have a fitted effect of over 35% in size; note: potency is the fitted concentration of half-maximal effect
Records with an inconclusive call do not appear. The source made the active and inactive calls. Calls follow the shape of the dose curve; as a rule, active = well fitted inhibition curve with a large enough effect; inconclusive = small, poorly fitted or top-dose-only effect; inactive = no such curve, though single readings can be large or run the other way.
valueKind: Potency

N#Cc1ccc(Cn2cncc2CN2CCN(c3cccc(Cl)c3)C(=O)C2)cc1
2950 nM (active)
C#CCN(C)CC1=Cc2ccccc2Oc2ccccc21
inactive
C[C@@H]1[C@H](O)[C@@H](C)/C=C/C=C/C=C/C=C/C=C/C=C/C=C/[C@H](O[C@@H]2O[C@H](C)[C@@H](O)[C@H](N)[C@@H]2O)C[C@@H]2O[C@](O)(C[C@@H](O)C[C@@H](O)[C@H](O)CC[C@@H](O)C[C@@H](O)CC(=O)O[C@H]1C)C[C@H](O)[C@H]2C(=O)O
inactive
COC(=O)N[C@H](C(=O)N1CCC[C@H]1c1ncc(-c2ccc(-c3ccc(-c4cnc([C@@H]5CCCN5C(=O)[C@@H](NC(=O)OC)C(C)C)[nH]4)cc3)cc2)[nH]1)C(C)C
inactive
COc1cc(F)ccc1-c1ncnc(Nc2cccc(CS(C)(=N)=O)c2)n1 (stereo not drawn)
934 nM (active)
C=CC(=O)N1CCc2ccc(-n3c(=O)ccc4cnc5ccc(-c6cnn(C)c6)cc5c43)cc21
363 nM (active)
CNC1CCCN(c2c(F)cc3c(=O)c(C(=O)O)cn(C4CC4)c3c2OC)C1 (stereo not drawn)
inactive

// CCCCCCCCCCCC(CC1OC(=O)C1CCCCCC)OC(=O)C(CC(C)C)NC=O (stereo not drawn) : Potency value = inactive

###

target: Aldehyde dehydrogenase, mitochondrial (Homo sapiens); experiment: qHTS for Inhibitors of the Aldehyde Dehydrogenase Family (ALDH2) Primary screen (AID 2061308); conditions: ALDH2 enzyme inhibition qHTS, 1536-well; series mostly up to 56 µM; note: nearly all actives have a fitted effect of over 55% in size
Results filed as inconclusive are left out. The source made the active and inactive calls. The call rests on the fitted dose curve; in most records, active means well fitted inhibition curve with a large enough effect; inconclusive means small, poorly fitted or top-dose-only effect; inactive means flat fitted curve, though single readings scatter.
valueKind: outcome

# annotated cases, reported outcome shown
c1nc(N2CCOCC2)c2cc(-c3ccc4c(c3)OCO4)ccc2n1
inactive
N#Cc1c(-c2ccc(OCCOCCOCCNC(=O)CCCC[C@@H]3SC[C@@H]4NC(=O)N[C@@H]43)cc2)no[n+]1[O-]
inactive
O=C(O)c1cc(F)c(S(=O)(=O)N2CCN(S(=O)(=O)c3ccc4c(c3)OCCO4)CC2)cc1F
inactive
Cc1ccnc(NC(=S)N2CC3CN(c4ncc(C(F)(F)F)cc4Cl)CC3C2)c1 (stereo not given)
inactive
COc1ccccc1C(=O)NCCc1nc2ccccc2n1CCOc1ccc(C)cc1
inactive

Assay Aldehyde dehydrogenase, mitochondrial (Homo sapiens), sample `C#Cc1cccc(Nc2ncnc3cc(OCCOC)c(OCCOC)cc23)c1` , outcome read: inactive

Assay Aldehyde dehydrogenase, mitochondrial (Homo sapiens), sample O=C(NC1CCCc2c1cnn2-c1ccc(F)cc1F)c1cccc(=O)[nH]1 (stereo not given) , outcome read: inactive
